Origin of the recorded values: patent US20260258115A1

A collection of binders and their measured Kd
molecular target: T1, RSV postfusion F, subtype B (postF trimer) (Respiratory syncytial virus subtype B, UniProt P13843 26-513); assay: BLI, IgG apparent affinity
T1 construct: also called Postfusion subtype B
Return type: number; implicit unit nM.

Consider the following illustrative entries.
- binder: "ADI-21089 (antibody, V domains shown) VH: EVQLLESGGGLVKPGGSLRLSCVASGFRFTSYSMNWVRQAPGKGLEWVSSISASSSYVDYADSLKGRFTISRDNAQNSLFLQMNSLRAEDTAVYYCARDYYDSGNYHSPFPMDVWGQGTTVTVSS VL: QSVLTQPPSVSGAPGQRVTISCTGSRSNIGAGYDVHWYQQLPGTAPKLLIYGNNKRPSGVPDRFSGSKSGTSASLAITGLQAEDEADYYCQSYDSGPIFGGGTKVTVL"
  value-unit: "nM"
  Kd: 3.34
- binder: "ADI-21082 (antibody, V domains shown) VH: EVQLVESGGGLVKPGGSLKLSCVASGLKFSSYSMNWVRQAPGKGLEWVSSVSAGSSYTNYADSVKGRFTISRDNAKNSLYLQMNSLRVDDTAVYYCATERCSGGSCYLHGFDPWGQGTTVTVSS VL: QSVLTQPPSVSGAPGQRVTISCTGSSSNIGAGYDVHWYQQLPGTAPKLLIFDNIIRPSGVPDRFSGSKSGTSASLAITGLQADDEADYYCQSYDKSGDYVFGTGTKVTVL"
  value-unit: "nM"
  Kd: 6.17
- binder: "ADI-21084 (antibody, V domains shown) VH: EVQLVESGAEVKKPGASVTVSCKASGYTFTSNTISWLRQAPGQGLEWLGWVSASNGNTKYAQKFQGRVTMTTDTSATTAYMEVRTLRHDDTAIYYCARDILDMGGFHFDNWGQGTLVTVSS VL: SYVLTQPPSVSVAPGQTARITCGGNNIGNKHVHWYKQKPGQAPVLVVYDDSDRPSGIPERFSGSNSGNTATLTVSRVEAGDEADFYCQVWDNTNDHPVFGGGTKVTVL"
  value-unit: "nM"
  Kd: 22.9
- binder: "ADI-21071 (antibody, V domains shown) VH: EVQLVESGGGVVQPGKSLRLSCAVSGFTFSDHDMHWVRQAPGKGLEWVAAIWSDRTTKYYGDFVKGRFTISRDNSKNTLYLQMNSLRAEDTAVYYCARGQIYKSGGYYLVHLDHWGQGTLVTVSS VL: DIQVTQSPSSLSASVGDRVTITCRASQSIASYLNWYQQKPGKAPNLLIYAASNLQSEVPSRFSGSGSGTDFTLTISGLQPEDFATYYCQQSYNIRLLTFGGGTKVEIK"
  value-unit: "nM"
  Kd: 1.38
- binder: "ADI-21068 (antibody, V domains shown) VH: QVQLQESGPGLVKPSGTLSLTCVVSGGSIKSHNYWTWVRQPPGKGLEWVGEIYQSGRTNYNPSLNSRVTLSMDKSKNQLSLRLTSVTAADTAVYFCVGGGPFAPYYFQTWGQGTLVTVSS VL: QSVLTQPPSVSGAPGQRVTISCTGSSSNIGAGYDVHWYQQLPGTAPKLLIYNNNNRPSGVPDRFSGSKSGTSASLAITGLQAEDEADYYCQSYDTSLSGYVFGTGTKVTVL"
  value-unit: "nM"
  Kd: 7.85

## Input Please look up its Kd: ADI-21090 (antibody, V domains shown) VH: EVQLLESGGGLVKPGGSLRLSCAASGFTSGFTFSDFYMSWIRLTPGKGLEWISYISTHSTSTNYADSVRGRFIISRDDARNSLFLQMNSLRAEDTAVYYCAGYYYGSGSYFFDHWGQGTLVTVSS VL: ETTLTQSPATLSVSPGERATLSCRASQSVSSNVAWYQQKPGQAPRLLIYSASSRDTGIPVRFSGSGSGTEFTLSISSLQSEDFAVYYCQQYSDWPTFGQGTKVEIK
## Output 0.175
